Listing of recorded pEC50 by entry.
Molecular target: human E3 ligase component cereblon (CRBN) (Homo sapiens, UniProt Q96SW2)
Sequence (Q96SW2 whole entry): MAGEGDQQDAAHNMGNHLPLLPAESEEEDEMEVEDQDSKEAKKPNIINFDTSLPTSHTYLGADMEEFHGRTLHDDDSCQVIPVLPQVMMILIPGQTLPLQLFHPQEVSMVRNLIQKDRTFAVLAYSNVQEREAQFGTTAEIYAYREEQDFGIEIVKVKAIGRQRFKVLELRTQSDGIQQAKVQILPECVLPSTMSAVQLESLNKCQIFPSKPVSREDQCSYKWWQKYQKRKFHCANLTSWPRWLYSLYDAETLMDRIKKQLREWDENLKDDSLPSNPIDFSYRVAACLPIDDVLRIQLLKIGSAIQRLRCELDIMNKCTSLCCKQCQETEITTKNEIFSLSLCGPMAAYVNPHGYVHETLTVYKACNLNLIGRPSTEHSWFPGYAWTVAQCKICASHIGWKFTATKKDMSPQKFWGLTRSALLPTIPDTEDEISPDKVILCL
Sequence (Q16531 whole entry partner): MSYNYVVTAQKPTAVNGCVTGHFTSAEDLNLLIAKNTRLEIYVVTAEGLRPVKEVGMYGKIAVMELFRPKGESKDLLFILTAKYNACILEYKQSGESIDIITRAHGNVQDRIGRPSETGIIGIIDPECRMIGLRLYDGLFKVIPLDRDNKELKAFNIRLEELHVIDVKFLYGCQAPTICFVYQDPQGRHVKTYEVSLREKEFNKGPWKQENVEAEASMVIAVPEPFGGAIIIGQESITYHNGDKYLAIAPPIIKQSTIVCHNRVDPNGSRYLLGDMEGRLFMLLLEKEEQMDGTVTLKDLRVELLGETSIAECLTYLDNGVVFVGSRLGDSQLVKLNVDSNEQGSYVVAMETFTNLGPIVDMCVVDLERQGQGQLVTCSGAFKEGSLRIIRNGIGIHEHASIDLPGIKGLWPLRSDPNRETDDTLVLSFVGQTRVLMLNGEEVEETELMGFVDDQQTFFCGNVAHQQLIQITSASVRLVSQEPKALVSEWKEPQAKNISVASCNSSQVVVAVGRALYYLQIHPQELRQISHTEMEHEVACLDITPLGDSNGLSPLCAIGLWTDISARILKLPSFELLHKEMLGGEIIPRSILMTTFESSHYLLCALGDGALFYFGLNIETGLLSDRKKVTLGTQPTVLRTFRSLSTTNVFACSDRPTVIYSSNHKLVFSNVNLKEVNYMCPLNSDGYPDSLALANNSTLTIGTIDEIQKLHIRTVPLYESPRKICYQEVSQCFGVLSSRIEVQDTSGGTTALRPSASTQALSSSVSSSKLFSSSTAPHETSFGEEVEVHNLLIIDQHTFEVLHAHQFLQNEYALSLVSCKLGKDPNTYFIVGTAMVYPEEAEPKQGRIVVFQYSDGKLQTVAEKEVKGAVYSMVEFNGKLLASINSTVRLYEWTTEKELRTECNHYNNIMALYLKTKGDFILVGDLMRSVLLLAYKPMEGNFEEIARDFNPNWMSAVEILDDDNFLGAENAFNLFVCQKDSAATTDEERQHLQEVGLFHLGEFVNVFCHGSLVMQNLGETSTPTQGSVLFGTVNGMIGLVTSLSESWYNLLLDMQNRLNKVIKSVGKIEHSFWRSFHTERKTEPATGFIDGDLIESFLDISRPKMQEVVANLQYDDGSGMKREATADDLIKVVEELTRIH
Experiment: Cereblon (CRBN) target engagement, NanoBRET TE Intracellular E3 Ligase Assay in transfected HEK-293T cells
Conditions: read-out: CRBN Binding EC50
Method: HEK293T cells were harvested ca. 75% confluent with trypsin and plated (500,000 cells/well) in a 6-well tissue culture plate in 2 mL of Dulbecco's Modified Eagle Medium (DMEM)^+10% Fetal Bovine Serum (FBS) and incubated overnight at 37° C. […] Cereblon target engagement was monitored by Bioluminescence Resonance Energy Transfer (BRET) in transfected HEK-293T cells using the NanoBRET TE Intracellular E3 Ligase Assay (Promega). […]
FYI, pEC50 means -log10 of a concentration in mol per litre.

COc1cc(C2CN(C3CCCC3Oc3ccc4c(c3)CN(C3CCC(=O)NC3=O)C4=O)C2)ccn1 (stereo not shown) [Compound 170-B]
6.96
COc1ccc(C2CN([C@H]3CCCC3Oc3ccc4c(c3)CN(C3CCC(=O)NC3=O)C4=O)C2)cn1 (mixture of isomers) [Compound 201-B]
7.44
O=C1CCC(N2Cc3cc(O[C@@H]4CCCC[C@@H]4N4CC(c5ccc(Cl)cn5)C4)ccc3C2=O)C(=O)N1 (single isomer, unassigned) [Compound 101-B]
7.96
O=C1CCC(N2Cc3cc(O[C@H]4CCCC[C@@H]4N4CC(c5cc(Cl)ccn5)C4)ccc3C2=O)C(=O)N1 (mixture of isomers) [Compound 166-B]
7.51

[Q] Request: pEC50, test system human E3 ligase component cereblon (CRBN) (Homo sapiens, UniProt Q96SW2), entry O=C1CCC(N2Cc3cc(O[C@H]4CCCC[C@@H]4N4CC(c5ncncc5Cl)C4)ccc3C2=O)C(=O)N1 (mixture of isomers) [Compound 140-B]
[A] 7.47

[Q] Now this one: N#CC1(C(=O)N2CCC(C3CN([C@H]4CCCC[C@@H]4Oc4ccc5c(c4)CN(C4CCC(=O)NC4=O)C5=O)C3)CC2)CC1 (stereo partly shown) [Compound 27-A]
[A] 8.00

[Q] Next compound up: O=C1CCC(N2Cc3cc(O[C@H]4CCCC[C@@H]4N4CC(c5ccncc5F)C4)ccc3C2=O)C(=O)N1 (single isomer, unassigned) [Compound 103-B]
[A] 7.23

[Q] Now consider O=C1CCC(N2Cc3cc(OC4CCC[C@@H]4N4CC(c5cccnc5)C4)ccc3C2=O)C(=O)N1 (mixture of isomers) [Compound 207-B] .
[A] 6.98

[Q] Here is the next compound: O=C1CCC(N2Cc3cc(OC4CCCCC4N4CC(c5cccc6[nH]ncc56)C4)ccc3C2=O)C(=O)N1 (stereo not shown) [Compound 211-B]
[A] 7.55

[Q] Do the same for O=C1CCC(N2Cc3cc(O[C@H]4CCCC[C@@H]4N4CC(c5ncc(C6CC6)cn5)C4)ccc3C2=O)C(=O)N1 (single isomer, unassigned) [Compound 134-B] please
[A] 8.30

[Q] Consider next the compound O=C1CCC(N2Cc3cc(O[C@H]4CCCC[C@@H]4N4CC(c5ncc(Br)cn5)C4)ccc3C2=O)C(=O)N1 (single isomer, unassigned) [Compound 107-B] in the same way.
[A] 7.66

[Q] Now give it for O=C1CCC(N2Cc3cc(O[C@@H]4CCCC[C@H]4N4CC(c5ncc(Br)cn5)C4)ccc3C2=O)C(=O)N1 (single isomer, unassigned) [Compound 106-B] too.
[A] 8.22

[Q] Field entry: O=C1CCC(N2Cc3cc(OC4CCC[C@@H]4N4CC(c5ccncc5)C4)ccc3C2=O)C(=O)N1 (mixture of isomers) [Compound 206-B]
[A] 7.15

All values here come from patent US20250100996A1.
